Hello, the source for this data is PubChem BioAssay (NCI), in case you need it.

Quick note: these are GI50 numbers for system: NCI-H460 lung

CN(C)CCCSc1ccccc1NC1=C(Cl)C(=O)C(Nc2ccccc2SCCCN(C)C)=C(Cl)C1=O
4490 nM
Cc1ccc2cccc(OC(=O)Nc3cccc(C(F)(F)F)c3)c2n1
2840 nM
COc1ccc(C(=NN=C(N)N)c2ccc(OC)cc2)cc1
3040 nM

Let us move to another entry and its GI50.
response.value for NC1CCCCC1N.O=C1C=C/C(=C(/c2ccc(O)c(Br)c2)c2ccccc2S(=O)(=O)[O-])C=C1Br.O=C1C=C/C(=C(/c2ccc(O)c(Br)c2)c2ccccc2S(=O)(=O)[O-])C=C1Br.[Pt+4] (field: GI50) = 1540 nM
